Hello, the source for this data is paper PMC6913127, in case you need it.

Target: T1, MERS1 (Trypanosoma brucei brucei TREU927, UniProt B6SBM0 37-395)
T1 sequence: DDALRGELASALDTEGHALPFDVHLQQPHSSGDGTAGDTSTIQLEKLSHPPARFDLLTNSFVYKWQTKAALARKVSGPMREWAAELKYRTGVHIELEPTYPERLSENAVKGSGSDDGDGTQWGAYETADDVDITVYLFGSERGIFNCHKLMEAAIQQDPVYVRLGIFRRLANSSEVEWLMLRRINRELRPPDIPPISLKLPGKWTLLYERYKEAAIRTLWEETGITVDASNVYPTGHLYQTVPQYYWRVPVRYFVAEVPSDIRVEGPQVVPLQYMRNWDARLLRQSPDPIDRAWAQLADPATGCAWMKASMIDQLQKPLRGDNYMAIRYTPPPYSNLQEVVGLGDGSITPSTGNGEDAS
Assay: fluorescence polarization; FP: 25 mM Tris HCl pH 7.5, 50 mM NaCl, 5% (v/v) glycerol, 1 nM labeled RNA or DNA, 25 C
Details: protein: recombinant; tags: N-terminal His tag (pET15b, linker LVPRGSM); label: fluorescein; single-stranded
Parameter: pKd. Scope: all listed entries.
Here pKd is given on a logarithmic scale as minus log10 of the concentration in mol/L.

binder | pKd
GAGGGGGGGUU (ssRNA) [RNA A4G] | 7.33
GAAAGGGGGUU (ssRNA) [RNA G3A] | 7.11
GGGAGGGGGUU (ssRNA) [RNA A2G] | 7.32

Now look at this one.
Challenge: Looking for the measured pKd of GAGAAGGGGUU (ssRNA) [RNA G5A] , can you help?
Response given: 7.37
